Measured viability, T/C, listed per entry.
Test system: MDA-MB-468 multi-cell spheroids, viability
Assay: Anticancer human tumor MDA-MB-468 cell line growth inhibition [IpAb];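 further: spheroids exposed to agents for seven days; 100% = DMSO vehicle control viability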
Details: second compound 0.316 µM; first compound 0.316 µM; active compounds read low

compound | viability, T/C
C=CC(=O)N1CCN(c2nc(=O)n(-c3c(C)ccnc3C(C)C)c3nc(-c4c(O)cccc4F)c(F)cc23)C(C)C1 (stereo unspecified) + CC(C)NCC(C(=O)N1CCN(c2ncnc3c2C(C)CC3O)CC1)c1ccc(Cl)cc1 | 68.4%
C=CC(=O)N1CCN(c2nc(=O)n(-c3c(C)ccnc3C(C)C)c3nc(-c4c(O)cccc4F)c(F)cc23)C(C)C1 (stereo unspecified) + CCN1CCN(Cc2ccc(Nc3ncc(F)c(-c4cc(F)c5nc(C)n(C(C)C)c5c4)n3)nc2)CC1 | 116%
Cn1ncc(Cl)c1-c1cc(C(=O)NC(CN)Cc2cccc(F)c2)sc1Cl (stereo unspecified) + CC(C)NCC(C(=O)N1CCN(c2ncnc3c2C(C)CC3O)CC1)c1ccc(Cl)cc1 | 44%
Cc1nc(NC(=O)N2CCCC2C(N)=O)sc1-c1ccnc(C(C)(C)C(F)(F)F)c1 (stereo unspecified) + CCN1CCN(Cc2ccc(Nc3ncc(F)c(-c4cc(F)c5nc(C)n(C(C)C)c5c4)n3)nc2)CC1 | 77.7%
Cn1nccc1Nc1nccc(-c2ccn(C(CO)c3ccc(Cl)c(F)c3)c(=O)c2)n1 (stereo unspecified) + CC(C)NCC(C(=O)N1CCN(c2ncnc3c2C(C)CC3O)CC1)c1ccc(Cl)cc1 | 62%
CCCS(=O)(=O)Nc1ccc(F)c(C(=O)c2c[nH]c3ncc(-c4ccc(Cl)cc4)cc23)c1F + CCN1CCN(Cc2ccc(Nc3ncc(F)c(-c4cc(F)c5nc(C)n(C(C)C)c5c4)n3)nc2)CC1 | 104%
